System: Plasmodium yoelii
Test: Antimalarial activity as parasitaemia after 28 days against chloroquine-resistant Plasmodium yoelii N67 infected Swiss mice (Mus musculus) at 50 mg/kg peroral dose over 7 days
Type: functional
Details: route oral
Overview of recorded Activity for various compounds
Just the number in %, nothing appended.

* Cc1cc(NC(=O)c2cccc(Cl)c2)c2cc(NC(=O)Nc3ccc(F)c(Cl)c3)ccc2n1 | 15.5

Which measured Activity value corresponds to Cc1cc(NC(=O)c2ccccc2Cl)c2cc(NC(=O)Nc3ccc(Br)cc3)ccc2n1 ? 8.8

Need Activity of Cc1cc(NC(=O)CN2CCN(C)CC2)c2cc(NC(=O)Nc3cc(Cl)cc(Cl)c3)ccc2n1 , thanks. 15.5

Return reported Activity; argument: CC(=O)c1ccc(NC(=O)Nc2ccc3nc(C)cc(NC(=O)c4ccccc4Cl)c3c2)cc1 5.98

====

Test system: Plasmodium yoelii
Experiment: Antimalarial activity as parasitaemia after 28 days against chloroquine-resistant Plasmodium yoelii N67 infected Swiss mice (Mus musculus) at 50 mg/kg peroral dose over 7 days
Assay type: functional
Details: route oral
Reported Activity by item:
The reply should contain only the number, in %.

Guide cases for Activity, answers given:
- Cc1cc(NC(=O)c2ccco2)c2cc(NC(=O)Nc3ccc(C)c(Cl)c3)ccc2n1: 21.1
- Cc1cc(NC(=O)CN2CCN(C)CC2)c2cc(NC(=O)Nc3cccc(C(F)(F)F)c3)ccc2n1: 21.9
- Cc1cc(NC(=O)CN2CCN(C)CC2)c2cc(NC(=O)Nc3ccc(C)c(Cl)c3)ccc2n1: 5.15

Turning to the following compound.
Which Activity value is on record for Cc1cc(NC(=O)c2ccccc2Cl)c2cc(NC(=O)Nc3cccc(C#N)c3)ccc2n1 ? 12.11

====

compounds and their reported MIC
Test system: Enterococcus faecalis
Experiment: Antibacterial activity against Streptococcus faecalis after 24 hrs by NCCLS method
Format: functional
Entry rule: numbers only, all in µg/mL.

* Cc1cc(NC(=O)CN2CCN(C)CC2)c2cc(NC(=O)Nc3cc(Cl)cc(Cl)c3)ccc2n1 | 3.12
* Cc1cc(NC(=O)CN2CCN(C)CC2)c2cc(NC(=O)Nc3ccc(Cl)c(Cl)c3)ccc2n1 | 1.56
* Cc1cc(NC(=O)c2cccc(Cl)c2)c2cc(NC(=O)Nc3ccc(Cl)cc3)ccc2n1 | 12.5
* Cc1cc(NC(=O)CN2CCN(C)CC2)c2cc(NC(=O)Nc3ccc(Cl)c(C(F)(F)F)c3)ccc2n1 | 3.1
* Cc1cc(NC(=O)CN2CCN(C)CC2)c2cc(NC(=O)Nc3ccc(Br)cc3)ccc2n1 | 6.25

Now look at this entry.
Entry under review: Cc1cc(NC(=O)c2ccccc2)c2cc(NC(=O)Nc3cc(Cl)cc(Cl)c3)ccc2n1 . Reported MIC? 0.01

====

Test system: Plasmodium yoelii
Assay: Antimalarial activity as parasitaemia after 28 days against chloroquine-resistant Plasmodium yoelii N67 infected Swiss mice (Mus musculus) at 50 mg/kg peroral dose over 4 days
Assay type: functional
Conditions: route oral
Lab note: compare Activity against 2%. Equal or greater, write 1. Smaller, write -1.

A selection of reference data follows.
• Cc1cc(NC(=O)CN2CCN(C)CC2)c2cc(NC(=O)Nc3ccc(C)c(Cl)c3)ccc2n1 = -1
• Cc1cc(NC(=O)c2ccccc2Cl)c2cc(NC(=O)Nc3ccc(C)c(Cl)c3)ccc2n1 = 1

Is Activity for Cc1cc(NC(=O)c2ccccc2Cl)c2cc(NC(=O)Nc3ccc(Br)cc3)ccc2n1 at or above 2%? -1

Quick check: does Cc1cc(NC(=O)CN2CCN(C)CC2)c2cc(NC(=O)Nc3ccc(Cl)c(C(F)(F)F)c3)ccc2n1 have Activity greater than or equal to 2%? 1

Does the compound Cc1cc(NC(=O)c2ccccc2Cl)c2cc(NC(=O)Nc3cccc(Cl)c3)ccc2n1 have recorded Activity that is 2% or more? 1

Record Cc1cc(NC(=O)c2ccccc2Cl)c2cc(NC(=O)Nc3cccc(C#N)c3)ccc2n1 ; criterion: Activity no lower than 2%. Met? 1

Is Activity at least 2%? Consider Cc1cc(NC(=O)CN2CCN(C)CC2)c2cc(NC(=O)Nc3cccc(C(F)(F)F)c3)ccc2n1 1

Say whether Cc1cc(NC(=O)c2ccco2)c2cc(NC(=O)Nc3ccc(C)c(Cl)c3)ccc2n1 shows Activity of 2% or more. -1

Say whether Cc1cc(NC(=O)c2ccco2)c2cc(NC(=O)Nc3ccc(Cl)cc3)ccc2n1 shows Activity of 2% or more. 1

====

System: Plasmodium yoelii
Assay: Antimalarial activity as parasitaemia after 28 days against chloroquine-resistant Plasmodium yoelii N67 infected Swiss mice (Mus musculus) at 50 mg/kg peroral dose over 4 days
Type: functional
Settings: route oral
ASSAY_READOUT: Activity (%)
Use % as the unit, but write only the number.

* Cc1cc(NC(=O)CN2CCN(C)CC2)c2cc(NC(=O)Nc3cc(Cl)cc(Cl)c3)ccc2n1 | 4.78
* Cc1cc(NC(=O)c2cccc(Cl)c2)c2cc(NC(=O)Nc3ccc(F)c(Cl)c3)ccc2n1 | 3.76
* Cc1cc(NC(=O)CN2CCN(C)CC2)c2cc(NC(=O)Nc3ccc(Cl)c(Cl)c3)ccc2n1 | 2.55

Now look at this one.
Quick check: Activity of CC(=O)c1ccc(NC(=O)Nc2ccc3nc(C)cc(NC(=O)c4ccccc4Cl)c3c2)cc1 ? 3.03

====

System: Plasmodium yoelii
Experiment: Antimalarial activity as parasitaemia after 28 days against chloroquine-resistant Plasmodium yoelii N67 infected Swiss mice (Mus musculus) at 50 mg/kg peroral dose over 7 days
Assay type: functional
Conditions: route oral
Attribute: Activity

* Cc1cc(NC(=O)CN2CCN(C)CC2)c2cc(NC(=O)Nc3ccc(Cl)c(C(F)(F)F)c3)ccc2n1 | 11%
* Cc1cc(NC(=O)c2ccccc2Cl)c2cc(NC(=O)Nc3ccc(C)c(Cl)c3)ccc2n1 | 5.08%
* Cc1cc(NC(=O)c2ccccc2Cl)c2cc(NC(=O)Nc3cccc(Cl)c3)ccc2n1 | 9.77%
* Cc1cc(NC(=O)CN2CCN(C)CC2)c2cc(NC(=O)Nc3ccc(Cl)c(Cl)c3)ccc2n1 | 1.5%

Next compound, Activity to be filled in.
Name the recorded Activity for Cc1cc(NC(=O)c2ccco2)c2cc(NC(=O)Nc3ccc(Cl)cc3)ccc2n1 . 13.2%
